This listing pairs binders with measured percent of cells in the gate.
biological target: T1, mesothelin-Fc recombinant protein (human, UniProt Q13421 296-580, limits assumed); test: flow cytometry, T cells with CAR mRNA, mesothelin-Fc + PE-anti-IgG-Fc; Control 0.97
T1 construct: construct not described; also called Meso-Fc; not shown: Fc part
T1 sequence (Q13421 other isoform, or with tags, fused parts or gaps limits assumed): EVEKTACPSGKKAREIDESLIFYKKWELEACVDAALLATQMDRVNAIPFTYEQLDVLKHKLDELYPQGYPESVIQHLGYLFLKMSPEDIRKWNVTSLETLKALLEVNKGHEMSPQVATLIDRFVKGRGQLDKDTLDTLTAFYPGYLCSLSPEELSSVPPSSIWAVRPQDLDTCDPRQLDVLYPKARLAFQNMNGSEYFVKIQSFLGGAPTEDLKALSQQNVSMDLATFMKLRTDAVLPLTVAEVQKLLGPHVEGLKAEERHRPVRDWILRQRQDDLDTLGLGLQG
measuredMetric: percent of cells in the gate (%)

# binder, resultValue
measured = [
    ("anti-mesothelin scFv-M20 (scFv, On mRNA-electroporated T cells as CAR) scFv: AIQMTQSPSSLSASVGNRVTITCRASQGISSAVAWYQQKPGKPPKLLISYASSLESGVPSRFSGSGSGTDFSLTISSLQPEDFATYFCQQFNSYPLTFGGGTKVEIKGGGGSGGGGSGGGGSQVQLVQSGAEVRKPGESLKISCKGSGYSFRDSWIAWVRQMPGQGLEWMGIIFPGDSNPIYSPSFQGQVTISADTSISTTFLQWRSLKASDSAIYYCARHAAWGAGWFDPWGQGTLVTVSS", 75.6),
    ("anti-mesothelin scFv-M37 (scFv, On mRNA-electroporated T cells as CAR) scFv: DIVMTQTPSSLSASVGDRVTITCRASQGISNYLAWFQQKPGKAPKPLIYAASSLQSGVPSKFSGSGSGTDFTLTISNLQPEDFATYICQQYSSYPITFGQGTRLEIKGGGGSGGGGSGGGGSQLQLQESGPGLVKPSETLSLTCAVSGGSISPYYWTWIRQSPGKAMEWMGYIHYSGRTNYNPSLESRATFSVDTSKNQISLKLNSVTAADTAVYYCTKVGDPGLFDYWGPGTLVTVSS", 74.2),
]
